target: Tyrosine-protein kinase receptor UFO (Homo sapiens) (UniProt P30530)
Sequence (P30530 whole entry): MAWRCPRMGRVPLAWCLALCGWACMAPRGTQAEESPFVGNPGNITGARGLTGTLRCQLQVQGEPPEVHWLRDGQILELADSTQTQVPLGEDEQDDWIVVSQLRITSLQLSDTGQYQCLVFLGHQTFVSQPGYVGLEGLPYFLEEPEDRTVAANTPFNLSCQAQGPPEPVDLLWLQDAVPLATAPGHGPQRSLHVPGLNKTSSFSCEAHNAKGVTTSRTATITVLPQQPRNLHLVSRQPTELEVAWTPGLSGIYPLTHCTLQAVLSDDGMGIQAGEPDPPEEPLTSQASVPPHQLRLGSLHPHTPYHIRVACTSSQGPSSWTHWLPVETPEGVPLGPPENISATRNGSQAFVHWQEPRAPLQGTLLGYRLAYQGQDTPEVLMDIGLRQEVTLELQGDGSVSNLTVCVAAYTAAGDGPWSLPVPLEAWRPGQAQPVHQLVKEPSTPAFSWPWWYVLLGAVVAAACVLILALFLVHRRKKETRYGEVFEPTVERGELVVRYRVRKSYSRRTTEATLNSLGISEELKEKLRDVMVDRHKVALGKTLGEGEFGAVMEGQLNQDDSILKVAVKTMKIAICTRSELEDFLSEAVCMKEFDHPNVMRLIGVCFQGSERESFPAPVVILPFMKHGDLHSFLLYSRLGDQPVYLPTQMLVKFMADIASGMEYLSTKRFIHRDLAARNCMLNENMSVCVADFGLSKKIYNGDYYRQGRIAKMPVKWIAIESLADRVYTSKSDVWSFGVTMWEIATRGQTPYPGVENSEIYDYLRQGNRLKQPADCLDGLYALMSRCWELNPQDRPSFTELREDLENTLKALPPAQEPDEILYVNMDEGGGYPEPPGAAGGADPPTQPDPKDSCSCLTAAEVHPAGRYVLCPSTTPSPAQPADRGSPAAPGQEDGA
assay procedure: Residual activity of human Axl at 1 uM relative to control
readout type: residual activity (%)

{"columns": ["molecule", "unit annotation", "residual activity"],
 "data": [
  ["CN(C)c1cc2cc(n1)CCCn1cc(c3ccccc31)C1=C(C(=O)NC1=O)c1cn(c3ccccc13)CCC2", "%", 104],
  ["CN(C)c1nc2ccc1CCCn1cc(c3ccccc31)C1=C(C(=O)NC1=O)c1cn(c3ccccc13)CC2", "%", 97],
  ["O=C1NC(=O)C2=C1c1cn(c3ccccc13)CCCc1cc(nc(N3CCCC3)c1)CCCn1cc2c2ccccc21", "%", 106],
  ["O=C1NC(=O)C2=C1c1cn(c3ccccc13)CCCc1ccc(c(N3CCCC3)n1)CCCn1cc2c2ccccc21", "%", 100]
]}

====

target: Protein kinase C theta type (Homo sapiens, UniProt Q04759)
Sequence (Q04759 whole entry, looked up): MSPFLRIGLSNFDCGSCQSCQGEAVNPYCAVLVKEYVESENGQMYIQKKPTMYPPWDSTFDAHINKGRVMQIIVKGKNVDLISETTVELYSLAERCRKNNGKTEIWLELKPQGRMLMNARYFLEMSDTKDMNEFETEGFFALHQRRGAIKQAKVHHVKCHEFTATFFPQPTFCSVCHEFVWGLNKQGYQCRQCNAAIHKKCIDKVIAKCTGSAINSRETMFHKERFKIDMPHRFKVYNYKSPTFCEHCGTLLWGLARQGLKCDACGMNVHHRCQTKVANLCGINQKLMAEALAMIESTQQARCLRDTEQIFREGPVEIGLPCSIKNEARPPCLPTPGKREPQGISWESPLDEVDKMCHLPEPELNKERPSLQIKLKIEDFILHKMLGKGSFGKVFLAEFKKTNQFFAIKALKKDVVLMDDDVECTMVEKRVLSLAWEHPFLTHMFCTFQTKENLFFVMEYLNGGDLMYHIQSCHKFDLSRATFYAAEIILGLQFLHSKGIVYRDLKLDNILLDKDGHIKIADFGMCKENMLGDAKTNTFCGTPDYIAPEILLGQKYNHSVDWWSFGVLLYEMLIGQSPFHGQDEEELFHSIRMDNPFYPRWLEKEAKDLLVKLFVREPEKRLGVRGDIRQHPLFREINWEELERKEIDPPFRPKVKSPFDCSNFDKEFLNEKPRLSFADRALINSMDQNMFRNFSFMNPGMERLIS
assay procedure: Residual activity of human PKCtheta at 1 uM relative to control
readout type: residual activity (%)

Here are 2 molecules together with their reported answers.
{"columns": ["molecule", "target", "unit annotation", "value"],
 "data": [
  ["CN(C)c1cc2cc(n1)CCCn1cc(c3ccccc31)C1=C(C(=O)NC1=O)c1cn(c3ccccc13)CCC2", "Protein kinase C theta type (Homo sapiens, UniProt Q04759)", "%", 27],
  ["O=C1NC(=O)C2=C1c1cn(c3ccccc13)CCCc1cc(nc(N3CCCC3)c1)CCCn1cc2c2ccccc21", "Protein kinase C theta type (Homo sapiens, UniProt Q04759)", "%", 29]
]}

A = O=C1NC(=O)C2=C1c1cn(c3ccccc13)CCCc1ccc(c(N3CCCC3)n1)CCCn1cc2c2ccccc21
B = CN(C)c1nc2ccc1CCCn1cc(c3ccccc31)C1=C(C(=O)NC1=O)c1cn(c3ccccc13)CC2
Input line: Name the one with the greater residual activity value, either A or B as given. Identify your pick by its label.
Output line: A
(A: 33%, B: 21%)

====

target: Tyrosine-protein kinase Fes/Fps (Homo sapiens) (UniProt P07332)
Sequence (P07332 whole entry): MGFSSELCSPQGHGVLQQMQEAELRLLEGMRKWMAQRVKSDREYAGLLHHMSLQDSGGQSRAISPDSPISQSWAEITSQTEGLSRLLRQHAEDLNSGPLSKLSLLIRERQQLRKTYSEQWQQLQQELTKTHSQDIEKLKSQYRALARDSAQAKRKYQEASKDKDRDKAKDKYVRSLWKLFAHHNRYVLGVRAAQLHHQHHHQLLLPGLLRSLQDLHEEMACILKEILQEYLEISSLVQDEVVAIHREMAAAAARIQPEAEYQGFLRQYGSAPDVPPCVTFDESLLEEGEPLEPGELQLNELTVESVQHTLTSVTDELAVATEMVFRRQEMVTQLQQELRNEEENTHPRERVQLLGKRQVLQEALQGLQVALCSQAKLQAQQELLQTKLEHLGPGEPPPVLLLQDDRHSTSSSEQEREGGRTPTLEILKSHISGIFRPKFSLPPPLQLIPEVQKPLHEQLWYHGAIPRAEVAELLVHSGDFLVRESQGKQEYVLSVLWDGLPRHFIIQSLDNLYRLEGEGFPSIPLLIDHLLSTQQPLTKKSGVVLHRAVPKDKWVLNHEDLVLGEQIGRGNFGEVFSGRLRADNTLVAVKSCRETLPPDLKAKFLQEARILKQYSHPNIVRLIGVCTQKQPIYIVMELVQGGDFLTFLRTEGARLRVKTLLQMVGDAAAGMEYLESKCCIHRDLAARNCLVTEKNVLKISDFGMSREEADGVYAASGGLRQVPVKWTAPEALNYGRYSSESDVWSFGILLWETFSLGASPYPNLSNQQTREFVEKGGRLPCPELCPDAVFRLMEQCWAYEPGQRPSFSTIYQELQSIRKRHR
assay procedure: Inhibition of human Fes at 1 uM relative to control; values are per cent of control
readout type: residual activity (%)

{"columns": ["molecule", "residual activity, %"],
 "data": [
  ["CN(C)c1nc2ccc1CCCn1cc(c3ccccc31)C1=C(C(=O)NC1=O)c1cn(c3ccccc13)CC2", 107],
  ["O=C1NC(=O)C2=C1c1cn(c3ccccc13)CCCc1cc(nc(N3CCCC3)c1)CCCn1cc2c2ccccc21", 139],
  ["O=C1NC(=O)C2=C1c1cn(c3ccccc13)CCCc1ccc(c(N3CCCC3)n1)CCCn1cc2c2ccccc21", 130],
  ["CN(C)c1cc2cc(n1)CCCn1cc(c3ccccc31)C1=C(C(=O)NC1=O)c1cn(c3ccccc13)CCC2", 133]
]}

====

target: Platelet-derived growth factor receptor beta (Homo sapiens) (UniProt P09619)
Sequence (P09619 whole entry): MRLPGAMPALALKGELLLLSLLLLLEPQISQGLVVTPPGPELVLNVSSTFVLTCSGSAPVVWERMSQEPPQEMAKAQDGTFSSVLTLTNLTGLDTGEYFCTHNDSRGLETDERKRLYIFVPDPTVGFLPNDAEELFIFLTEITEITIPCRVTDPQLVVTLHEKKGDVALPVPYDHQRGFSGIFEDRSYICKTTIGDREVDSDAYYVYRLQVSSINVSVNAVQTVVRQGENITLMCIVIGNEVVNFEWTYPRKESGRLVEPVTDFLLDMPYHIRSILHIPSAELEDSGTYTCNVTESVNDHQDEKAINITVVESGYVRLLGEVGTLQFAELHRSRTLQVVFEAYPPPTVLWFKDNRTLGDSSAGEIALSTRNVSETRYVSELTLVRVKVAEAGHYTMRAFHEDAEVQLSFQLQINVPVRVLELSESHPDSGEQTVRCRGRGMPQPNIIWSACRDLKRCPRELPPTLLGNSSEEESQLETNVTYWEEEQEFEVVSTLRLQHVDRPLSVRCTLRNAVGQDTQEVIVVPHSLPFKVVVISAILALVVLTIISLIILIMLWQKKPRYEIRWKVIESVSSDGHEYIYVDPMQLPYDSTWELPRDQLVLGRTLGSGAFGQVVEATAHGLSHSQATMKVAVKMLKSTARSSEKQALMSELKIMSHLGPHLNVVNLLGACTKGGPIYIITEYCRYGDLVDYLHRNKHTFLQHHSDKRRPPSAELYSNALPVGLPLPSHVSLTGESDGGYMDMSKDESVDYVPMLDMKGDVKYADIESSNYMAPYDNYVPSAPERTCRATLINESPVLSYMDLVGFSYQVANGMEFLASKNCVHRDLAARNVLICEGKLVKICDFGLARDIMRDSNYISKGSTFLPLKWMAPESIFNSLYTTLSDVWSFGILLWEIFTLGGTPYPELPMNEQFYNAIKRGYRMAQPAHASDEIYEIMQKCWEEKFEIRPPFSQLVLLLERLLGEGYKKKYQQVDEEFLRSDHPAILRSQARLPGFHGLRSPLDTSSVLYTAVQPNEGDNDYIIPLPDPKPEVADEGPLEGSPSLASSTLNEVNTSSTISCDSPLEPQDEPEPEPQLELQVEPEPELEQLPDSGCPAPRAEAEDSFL
assay procedure: Inhibition of human PDGFRbeta at 1 uM relative to control; values are per cent of control
readout type: residual activity (%)

{"columns": ["molecule", "residual activity / %"],
 "data": [
  ["O=C1NC(=O)C2=C1c1cn(c3ccccc13)CCCc1ccc(c(N3CCCC3)n1)CCCn1cc2c2ccccc21", 105],
  ["O=C1NC(=O)C2=C1c1cn(c3ccccc13)CCCc1cc(nc(N3CCCC3)c1)CCCn1cc2c2ccccc21", 103]
]}

a = CN(C)c1cc2cc(n1)CCCn1cc(c3ccccc31)C1=C(C(=O)NC1=O)c1cn(c3ccccc13)CCC2
b = CN(C)c1nc2ccc1CCCn1cc(c3ccccc31)C1=C(C(=O)NC1=O)c1cn(c3ccccc13)CC2
Input line: Select one. Lower residual activity: a or b Please respond with the label that marks your chosen entry.
Output line: a

Data origin, for the record: ChEMBL document CHEMBL1139192
